Reference source for all entries: patent EP4786492A1

- TESTED SYSTEM: mouse DLL3 on CHO-K1-mDLL3 cells (mouse) (UniProt O88516)
- Sequence (O88516 other isoform, or with tags, fused parts or gaps limits assumed): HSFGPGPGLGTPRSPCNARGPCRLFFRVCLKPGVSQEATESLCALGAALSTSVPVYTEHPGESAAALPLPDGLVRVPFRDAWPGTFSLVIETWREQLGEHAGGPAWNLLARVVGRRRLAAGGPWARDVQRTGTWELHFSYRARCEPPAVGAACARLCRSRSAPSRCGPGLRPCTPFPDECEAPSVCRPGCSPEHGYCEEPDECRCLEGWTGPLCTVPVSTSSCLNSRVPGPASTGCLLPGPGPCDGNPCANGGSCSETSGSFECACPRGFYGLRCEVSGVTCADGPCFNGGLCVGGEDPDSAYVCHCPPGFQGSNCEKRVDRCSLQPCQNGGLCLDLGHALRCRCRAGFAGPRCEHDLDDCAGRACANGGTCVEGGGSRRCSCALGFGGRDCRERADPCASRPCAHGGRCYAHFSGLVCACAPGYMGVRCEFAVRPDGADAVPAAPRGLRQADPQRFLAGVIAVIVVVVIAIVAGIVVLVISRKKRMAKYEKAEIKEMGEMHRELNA
- PROTOCOL DESCRIPTION: FACS, CHO-K1-mDLL3 cells, 0.00128 nM antibody
Property: MFI; scope: individual binders
OBSERVED PROPERTY: MFI (MFI)

>>> data_value("Hab009VL3aVH1-hFc (scFv, part only; not given: VL-VH linker and human IgG1 Fc, V domains shown, not shown: another chain or arm of the molecule; a dimerising Fc or GST; small tags and cut ends) VL: DIVMTQSPLSLPVTPGEPASISCRASQTISDYLHWYLQKSHQSPQLLIKYASQSISGVPDRFSGSGSGTDFTLKISRVEAEDVGVYYCQQGHSFPLTFGQGTKLEIK VH: EVQLVQSGAEVKKPGASVKVSCKASGYTFTSYWMHWVRQAPGQRLEWMGTIYPGNSDTRYNQKFKDRVTITADTSASTAYMELSSLRSEDTAVYYCTRSYDYGDLDYWGQGTTVTVSS")
190
>>> data_value("Hab015VL4VH5a-hFc (scFv, part only; not given: VL-VH linker and human IgG1 Fc, V domains shown, not shown: another chain or arm of the molecule; a dimerising Fc or GST; small tags and cut ends) VL: NIVLTQSPATLSLSPGERATLSCKASENVGTYVSWFQQKPGQSPRLLIYGASNRYTGIPARFSGSGSGTDFTLTISSLEPEDFAVYYCGQFYSFPSTFGGGTKVEIK VH: EVQLVESGGGLVKPGGSLRLSCVASGITFSNFWMNWVRQAPGKGLEWVGQIRLKSDDYATHYAESVKGRFTISREDSKNTVYLQMNSLKTEDTAVYYCTTGYYFDYWGQGTTVTVSS")
117
>>> data_value("Hab006VL4VH2-hFc (scFv, part only; not given: scFv linker and human IgG1 Fc, V domains shown, not shown: another chain or arm of the molecule; a dimerising Fc or GST; small tags and cut ends) VL: DIVMTQSPDSLAVSLGERATINCRATKSISKYLAWYQQKPGQTNKLLIFSGSTLQSGVPDRFSGSGSGTDFTLTISSLQAEDVAVYYCQQHHEYPYTFGGGTKVEIK VH: EVQLVQSGAEVKKPGASVKVSCKASGYTFTSYWMHWVRQAPGQRLEWMGVIDPSDSLANYNQEFKGRVTLTVDTSASTAYMELSSLRSEDTAVYYCARDSTVVAPMDYWGQGTTVTVSS")
99
